test system: PC-3 PIP/flu tumor-bearing mice; assay: Biodistribution in PC-3 PIP/flu tumor-bearing mice; settings: 30 min p.i., i.v.
// reported Kidneys per item
Enter your answer as a number in % IA/g; do not include the unit.

| molecule | measuredMetric | readoutUnits | readoutNumber |
| --- | --- | --- | --- |
| O=C([O-])CN1CCN(CC(=O)[O-])CCN(CC(=O)NCC2CCC(C(=O)N[C@@H](Cc3ccc4ccccc4c3)C(=O)NCCCC[C@H](NC(=O)N[C@@H](CCC(=O)O)C(=O)O)C(=O)O)CC2)CCN(CC(=O)[O-])CC1.[177Lu+3] (stereo partly shown) [^177Lu-PSMA-617] | Kidneys | % IA/g | 22.6 |
| O=C([O-])CN1CCN(CC(=O)[O-])CCN(CC(=O)NCC2CCC(C(=O)NC(Cc3ccc4ccccc4c3)C(=O)NCCCCC(NC(=O)NC(CCC(=O)O)C(=O)O)C(=O)O)CC2)CCN(CC(=O)[O-])CC1.[44Sc+3] (stereo not shown) [^44Sc-PSMA-617] | Kidneys | % IA/g | 27.8 |
| O=C([O-])CN1CCN(CC(=O)[O-])CCN(CC(=O)NCC2CCC(C(=O)NC(Cc3ccc4ccccc4c3)C(=O)NCCCCC(NC(=O)NC(CCC(=O)O)C(=O)O)C(=O)O)CC2)CCN(CC(=O)[O-])CC1.[68Ga+3] (stereo not shown) [^68Ga-PSMA-617] | Kidneys | % IA/g | 15.5 |

Report Kidneys for O=C([O-])CN(CCN(CC(=O)[O-])Cc1cc(CCC(=O)NCCCCCC(=O)NCCCC[C@H](NC(=O)N[C@@H](CCC(=O)O)C(=O)O)C(=O)O)ccc1[O-])Cc1cc(CCC(=O)O)ccc1[O-].[68Ga+3] [^68Ga-PSMA-11] please. 86.7
